Data credit: the kinase profiling compilation of Christmann-Franck et al. (2016)

Provide the recorded kinase still bound, per cent of control for the entries that follow.
Biological target: CLK2 (human)
Experiment: KINOMEscan competition binding
Conditions: compound 10.0 µM
Hi! Could you send only the number? It should be in %, unit omitted.

# input For the compound `O=C1NC(=S)S/C1=C\c1ccc(-c2cncc3ccccc23)o1` , give its measured kinase still bound, per cent of control value.
# output 3.1

# input For the compound `COc1cc(C(=O)NC2CCN(C)CC2)ccc1Nc1ncc2c(n1)N(C1CCCC1)CCC(=O)N2C` , give its measured kinase still bound, per cent of control value.
# output 21

# input For the compound `CN1C(=O)c2ccccc2N(C)c2nc(NS(=O)(=O)c3ccc(N)cc3)ncc21` , give its measured kinase still bound, per cent of control value.
# output 100

# input For the compound `COc1cc(N2CCC(O)CC2)ccc1Nc1ncc2c(n1)N1CCc3cccc(c31)C(=O)N2C` , give its measured kinase still bound, per cent of control value.
# output 55

# input For the compound `CN1C(=O)c2ccccc2N(C)c2nc(Nc3ccc(N4CCC(O)CC4)cc3)ncc21` , give its measured kinase still bound, per cent of control value.
# output 100

# input For the compound `CN1CCN(c2ccc(C(=O)Nc3ncc4c(n3)N(C)c3ccccc3C(=O)N4C)cc2)CC1` , give its measured kinase still bound, per cent of control value.
# output 96

# input For the compound `NS(=O)(=O)c1ccc(-c2ccc(/C=C3\C(=O)Nc4ccccc43)o2)cc1` , give its measured kinase still bound, per cent of control value.
# output 25

# input For the compound `CCN1C(=O)CCN(C2CCCC2)c2nc(Nc3ccc(N4CCC(O)CC4)cn3)ncc21` , give its measured kinase still bound, per cent of control value.
# output 33

# input For the compound `N=C1NC(=O)/C(=C/c2c[nH]c(=O)c(-c3ccc4cc[nH]c4c3)c2)S1` , give its measured kinase still bound, per cent of control value.
# output 4.8

# input For the compound `O=C1NC(=O)/C(=C/c2ccc(-c3ccc(F)cc3O)o2)S1` , give its measured kinase still bound, per cent of control value.
# output 27

# input For the compound `N=C1NC(=O)/C(=C/c2c[nH]c(=O)c(-c3ccc(S(N)(=O)=O)cc3)c2)S1` , give its measured kinase still bound, per cent of control value.
# output 5.1

# input For the compound `COc1cc(N2CCN(C)CC2)ccc1Nc1ncc2c(n1)N(C)c1sccc1C(=O)N2C` , give its measured kinase still bound, per cent of control value.
# output 78

# input For the compound `Nc1cccc(-c2cc(/C=C3\SC(=O)NC3=O)c[nH]c2=O)c1` , give its measured kinase still bound, per cent of control value.
# output 0

# input For the compound `CN1C(=O)c2ccccc2N(C)c2nc(Nc3ccc(N4CCC(O)CC4)cn3)ncc21` , give its measured kinase still bound, per cent of control value.
# output 32

# input For the compound `CSC1=NC(=O)/C(=C/c2ccc(-c3ccc(S(N)(=O)=O)cc3)o2)S1` , give its measured kinase still bound, per cent of control value.
# output 9.8

# input For the compound `N=C1NC(=O)/C(=C/c2ccc(-c3cnc4ccccc4c3)o2)S1` , give its measured kinase still bound, per cent of control value.
# output 9.8

# input For the compound `N=C1NC(=O)/C(=C/c2ccc(-c3csc4ccccc34)o2)S1` , give its measured kinase still bound, per cent of control value.
# output 15

# input For the compound `CC(=O)Nc1ccc(-c2ccc(/C=C3\SC(=N)NC3=O)o2)c(O)c1` , give its measured kinase still bound, per cent of control value.
# output 4.8

# input For the compound `N=C1NC(=O)/C(=C/c2c[nH]c(=O)c(-c3ccc(N4CCNCC4)nc3)c2)S1` , give its measured kinase still bound, per cent of control value.
# output 2.8

# input For the compound `CS(=O)(=O)Nc1ccc(-c2cc(/C=C3\SC(=N)NC3=O)c[nH]c2=O)cc1` , give its measured kinase still bound, per cent of control value.
# output 5.2

# input For the compound `N=C1NC(=O)/C(=C/c2ccc(-c3cncc4ccccc34)o2)S1` , give its measured kinase still bound, per cent of control value.
# output 1.6

# input For the compound `Cc1cn(-c2cc(NC(=O)c3cccc4cc(-c5ccc(/C=C6\SC(=N)NC6=O)o5)ccc34)cc(C(F)(F)F)c2)cn1` , give its measured kinase still bound, per cent of control value.
# output 21

# input For the compound `CN1C(=O)[C@H]2CCC[C@H]2N(C2CCCC2)c2nc(Nc3ccc(C(N)=O)cc3)ncc21` , give its measured kinase still bound, per cent of control value.
# output 1

# input For the compound `N=C1NC(=O)/C(=C/c2ccc(-c3cccc4cc[nH]c34)o2)S1` , give its measured kinase still bound, per cent of control value.
# output 7.7

# input For the compound `N=C1NC(=O)/C(=C/c2ccc(-c3ccc(C(=O)Nc4ccc(N5CCNCC5)cc4)cc3O)o2)S1` , give its measured kinase still bound, per cent of control value.
# output 2

# input For the compound COc1cc(C(=O)NC2CCN(C)CC2)ccc1Nc1ncc2c(n1)N(C1CCCC1)C(C)CC(=O)N2C (configuration not stated) , give its measured kinase still bound, per cent of control value.
# output 6.2

# input For the compound `COc1cc(N2CCN(C)CC2)ccc1Nc1ncc2c(n1)N(C)c1ccccc1N(C)C2=O` , give its measured kinase still bound, per cent of control value.
# output 81

# input For the compound `CSC1=NC(=O)/C(=C/c2c[nH]c(=O)c(-c3ccc(NS(C)(=O)=O)cc3)c2)S1` , give its measured kinase still bound, per cent of control value.
# output 9.5

# input For the compound `N=C1NC(=O)/C(=C/c2ccc(-c3ccccc3O)o2)S1` , give its measured kinase still bound, per cent of control value.
# output 0.9

# input For the compound `COc1cc(N2CCN(C)CC2)ccc1Nc1ncc2c(n1)Nc1ccccc1NC2=O` , give its measured kinase still bound, per cent of control value.
# output 95

# input For the compound `CN(C)C1=NC(=O)/C(=C/c2ccc(-c3ccc(S(N)(=O)=O)cc3)o2)S1` , give its measured kinase still bound, per cent of control value.
# output 33

# input For the compound `O=C1NC(=O)/C(=C/c2c[nH]c(=O)c(-c3ccc(N4CCNCC4)nc3)c2)S1` , give its measured kinase still bound, per cent of control value.
# output 0
